tested on: A549; assay: Cytotoxicity against human A549 cells after 72 hrs by MTT assay; type: functional, cell-based; conditions: A549, 72 h
pIC50: −log10 of the molar value.

{"columns": ["Mol", "pIC50"],
 "data": [
  ["C#CCn1cc(C(=O)N[C@@H](C)CCOC(=O)[C@H](C)NC(=O)OC(C)(C)C)c(=O)c2ccc(Cl)nc21", "< 5.00"],
  ["C#CCn1cc(C(=O)NCCCOC(=O)[C@H]2OC(C)(C)N(C(=O)OC(C)(C)C)[C@@H]2c2ccccc2)c(=O)c2ccc(Cl)nc21", "< 5.00"],
  ["C#CCn1cc(C(=O)NCCCOC(=O)[C@H]2CCCN2C(=O)OC(C)(C)C)c(=O)c2ccc(C)nc21", "< 5.00"],
  ["C#CCn1cc(C(=O)NCCCOC(=O)CNC(=O)OC(C)(C)C)c(=O)c2cccnc21", "< 5.00"],
  ["C#CCn1cc(C(=O)NCCCOC(=O)[C@H]2CCCN2C(=O)OC(C)(C)C)c(=O)c2ccc(Cl)nc21", "< 5.00"],
  ["C#CCn1cc(C(=O)N[C@@H](C)CCOC(=O)[C@H]2CCCN2C(=O)OC(C)(C)C)c(=O)c2ccc(Cl)nc21", "< 5.00"],
  ["C#CCn1cc(C(=O)NCCCOC(=O)[C@@H](O)[C@@H](NC(=O)OC(C)(C)C)c2ccccc2)c(=O)c2ccc(Cl)nc21", "< 5.00"],
  ["C#CCn1cc(C(=O)NCCCOC(=O)[C@H](C)NC(=O)OC(C)(C)C)c(=O)c2ccc(Cl)nc21", "< 5.00"]
]}
